Experiment: The drug is tested on Gemella morbillorum strain: DSM20572 for biotransformation under anaerobic condition. The drug concentrations were measured over 6 timepoints collected between 0 and 12 hours of incubation by liquid-chromatography-coupled mass spectrometry (LC–MS)
Assay type: ADME
Design: dose 5 uM, timepoint 0, 1.5, 3, 6, 9, 12 hours
Details: 5 µM
value.kind: Bacterial Biotransformation

C[C@H]1C[C@@H]2[C@H]([C@@H](O)C[C@@]3(C)[C@H]2CC[C@]3(O)C(=O)CO)[C@@]2(C)C=CC(=O)C=C12 = Compound NOT metabolized
CO[C@H]1C[C@@H]2CC[C@@H](C)[C@@](O)(O2)C(=O)C(=O)N2CCCC[C@H]2C(=O)O[C@H]([C@H](C)C[C@@H]2CC[C@@H](OCCO)[C@H](OC)C2)CC(=O)[C@H](C)/C=C(\C)[C@@H](O)[C@@H](OC)C(=O)[C@H](C)C[C@H](C)/C=C/C=C/C=C/1C = Compound NOT metabolized
CCOc1nc2cccc(C(=O)O)c2n1Cc1ccc(-c2ccccc2-c2nnn[nH]2)cc1 = Compound NOT metabolized
CO[C@H]1C[C@@H]2CC[C@@H](C)[C@@](O)(O2)C(=O)C(=O)N2CCCC[C@H]2C(=O)O[C@H]([C@H](C)C[C@@H]2CC[C@@H](O)[C@H](OC)C2)CC(=O)[C@H](C)/C=C(\C)[C@@H](O)[C@@H](OC)C(=O)[C@H](C)C[C@H](C)/C=C/C=C/C=C/1C = Compound metabolized

Data point: COc1c(C)c2c(c(O)c1C/C=C(\C)CCC(=O)OCCN1CCOCC1)C(=O)OC2 [MYCOPHENOLATE MOFETIL] ; Bacterial Biotransformation = Compound metabolized

----------
Experiment: The drug is tested on Streptococcus salivarius strain: DSM20560 for biotransformation under microaerobic condition. The drug concentrations were measured over 6 timepoints collected between 0 and 12 hours of incubation by liquid-chromatography-coupled mass spectrometry (LC–MS)
Type: ADME
Set-up: dose 5 uM, timepoint 0, 1.5, 3, 6, 9, 12 hours
Conditions: 5 µM
value.kind: Bacterial Biotransformation

Before answering, review these 5 worked examples.
CCOc1nc2cccc(C(=O)O)c2n1Cc1ccc(-c2ccccc2-c2nnn[nH]2)cc1 = Compound NOT metabolized
C[C@H]1C[C@H]2[C@@H]3CCC4=CC(=O)C=C[C@]4(C)[C@@]3(F)[C@@H](O)C[C@]2(C)[C@@]1(O)C(=O)CO = Compound NOT metabolized
COc1ccc([C@@H]2Sc3ccccc3N(CCN(C)C)C(=O)[C@@H]2OC(C)=O)cc1 = Compound metabolized
CCOC(=O)[C@H](CCc1ccccc1)N[C@@H](C)C(=O)N1[C@H](C(=O)O)C[C@@H]2CCC[C@@H]21 = Compound metabolized
Cn1cnc([N+](=O)[O-])c1Sc1ncnc2nc[nH]c12 = Compound metabolized

Record summary for CCOC(=O)C1=C(COCCN)NC(C)=C(C(=O)OC)C1c1ccccc1Cl (stereo not drawn) : reported Bacterial Biotransformation = Compound NOT metabolized

Recorded Bacterial Biotransformation (compound C[C@]12CCC(=O)C=C1CC[C@@H]1[C@@H]2[C@@H](O)C[C@@]2(C)[C@H]1CC[C@]2(O)C(=O)CO [HYDROCORTISONE] ): Compound metabolized

Sample "C[C@]12CCC(=O)C=C1CC[C@@H]1[C@@H]2C(=O)C[C@@]2(C)[C@H]1CC[C@]2(O)C(=O)CO" ; Bacterial Biotransformation observed: Compound NOT metabolized
